# TESTED_ON: Cytochrome P450 1A2 (Homo sapiens, UniProt P05177)
# Sequence (P05177 whole entry): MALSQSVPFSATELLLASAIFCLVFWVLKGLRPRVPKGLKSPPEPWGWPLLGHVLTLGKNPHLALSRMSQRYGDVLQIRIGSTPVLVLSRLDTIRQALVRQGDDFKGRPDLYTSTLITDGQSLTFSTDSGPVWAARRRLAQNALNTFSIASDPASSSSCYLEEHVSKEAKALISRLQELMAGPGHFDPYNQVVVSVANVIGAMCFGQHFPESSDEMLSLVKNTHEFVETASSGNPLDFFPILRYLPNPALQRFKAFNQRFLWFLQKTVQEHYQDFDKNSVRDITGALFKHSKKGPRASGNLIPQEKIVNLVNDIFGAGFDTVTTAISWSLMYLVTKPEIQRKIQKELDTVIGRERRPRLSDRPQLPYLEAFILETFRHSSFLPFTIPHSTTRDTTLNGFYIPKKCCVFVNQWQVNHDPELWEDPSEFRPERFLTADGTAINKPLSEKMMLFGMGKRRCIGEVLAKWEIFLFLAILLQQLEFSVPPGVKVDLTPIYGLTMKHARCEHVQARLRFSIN
ENDPOINT_LABEL: pIC50
Answers are plain numbers, as −log10 of the molar value.

For the molecule shown here, COc1ccc(-c2ccc(CO[C@H]3C[C@@H](N=C=S)C3)nc2)cc1F , give the reported pIC50.
5.74

----------
# ASSAY_INFO: AUC in CD-1 mouse plasma at 2 mg/kg, iv measured up to 8 hrs
# Format: ADME, organism-based
# Parameters: route intravenous, dose 2 mg/kg, time <=8
ENDPOINT_LABEL: AUC at 8 h (ng·h/mL)
Numbers only, in ng·h/mL.

Entry under review: COc1ccc(-c2ccc(CO[C@H]3C[C@@H](N=C=S)C3)nc2)cc1F . Reported AUC at 8 h?
78.5

----------
# ASSAY_INFO: Drug concentration in plasma of CD-1 mouse at 8 mg/kg, po administered as single cassette dose measured after 30 mins
# Type: ADME, organism-based
ENDPOINT_LABEL: concentration at 0.5 h (ng/mL)
Give bare numbers, in ng/mL.

Please review the following examples before continuing.
Please give the measured concentration at 0.5 h for this compound: COc1ccc(-c2ccc(C(=O)N[C@H]3C[C@@H](N=C=S)C3)nc2)cc1F
11

Entry Fc1cc(-c2ccc3c(c2)OCO3)ccc1CO[C@H]1C[C@@H](N=C=S)C1 please
31

Try this compound too: Fc1cc(-c2ccc(OC(F)(F)F)c(F)c2)ccc1CO[C@H]1C[C@@H](N=C=S)C1
12

Let us now turn to COc1ccc(-c2ccc(C(=O)N[C@H]3C[C@@H](N=C=S)C3)nc2)cc1
12

***
Given Fc1cc(-c2cccc(C(F)(F)F)c2)ccc1CO[C@H]1C[C@@H](N=C=S)C1 , state its recorded concentration at 0.5 h.
19

----------
# ASSAY_INFO: Volume of distribution in CD-1 mouse plasma at 2 mg/kg, iv measured up to 8 hrs
# Type: ADME, organism-based
ENDPOINT_LABEL: Vd

Need Vd of COc1ccc(-c2ccc(CO[C@H]3C[C@@H](N=C=S)C3)nc2)cc1F , thanks.
27 L/kg

----------
# ASSAY_INFO: Drug concentration in plasma of CD-1 mouse at 8 mg/kg, po administered as single cassette dose measured after 30 mins
# Assay type: ADME, organism-based
Field: concentration at 0.5 h. Provide a value for each of the compounds that follow.
Give bare numbers, in ng/mL.

Entry COc1ccc(-c2ccc(S(=O)(=O)N[C@H]3C[C@@H](N=C=S)C3)nc2)cc1 has what concentration at 0.5 h?
3

Quick one: COc1ccc(-c2ccc(S(=O)(=O)N[C@H]3C[C@@H](N=C=S)C3)cc2)cc1
20

Request: Fc1cc(-c2ccc3c(c2)OCCO3)ccc1CO[C@H]1C[C@@H](N=C=S)C1
12

More entries:
Need concentration at 0.5 h of COc1ccc(-c2ccc(CO[C@H]3C[C@@H](N=C=S)C3)nc2)cc1F , thanks.
16

----------
Would you kindly list Ratio for each of these molecules?
# TESTED_ON: N-acylethanolamine-hydrolyzing acid amidase (Homo sapiens) (UniProt Q02083)
# Sequence (Q02083 29-125 limits assumed): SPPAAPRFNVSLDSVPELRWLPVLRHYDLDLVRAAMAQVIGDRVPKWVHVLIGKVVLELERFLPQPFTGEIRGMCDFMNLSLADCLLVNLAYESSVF
# Sequence (Q02083 126-359 limits assumed): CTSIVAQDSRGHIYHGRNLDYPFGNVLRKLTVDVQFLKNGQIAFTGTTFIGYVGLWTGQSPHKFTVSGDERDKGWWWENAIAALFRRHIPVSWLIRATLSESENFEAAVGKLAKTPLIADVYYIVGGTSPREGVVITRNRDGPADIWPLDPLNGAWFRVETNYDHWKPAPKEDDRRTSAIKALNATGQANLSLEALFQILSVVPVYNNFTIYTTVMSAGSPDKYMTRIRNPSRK
# ASSAY_INFO: Covalent inhibition of human NAAA assessed as ratio of Kinact/Ki

Sample records with Ratio:
Ratio lookup needed for COc1cccc(-c2ccc(CO[C@H]3C[C@@H](N=C=S)C3)cc2)c1 , thanks.
2.24 10^6/M/s

Follow-up item: COc1ccc(-c2ccc(CO[C@H]3C[C@@H](N=C=S)C3)c(F)c2)cc1OC
7.97 10^5/M/s

Similarly, Fc1cc(-c2ccc3c(c2)OCO3)ccc1CO[C@H]1C[C@@H](N=C=S)C1 ?
3.44 10^5/M/s

Kindly give each listed record's Ratio.
1. Fc1cc(-c2ccc3c(c2)OCCO3)ccc1CO[C@H]1C[C@@H](N=C=S)C1
2. COc1ccc(-c2ccc(CO[C@H]3C[C@@H](N=C=S)C3)c(F)c2)cc1F
3. Cc1ccc(-c2ccc(CO[C@H]3C[C@@H](N=C=S)C3)cc2)cc1
4. S=C=N[C@H]1C[C@@H](OCc2ccc(-c3ccccc3)cc2)C1

2.43 10^5/M/s
2.85 10^6/M/s
2.04 10^6/M/s
7.23 10^6/M/s

----------
# TESTED_ON: Cytochrome P450 3A4 (Homo sapiens)
# Sequence (P08684 whole entry): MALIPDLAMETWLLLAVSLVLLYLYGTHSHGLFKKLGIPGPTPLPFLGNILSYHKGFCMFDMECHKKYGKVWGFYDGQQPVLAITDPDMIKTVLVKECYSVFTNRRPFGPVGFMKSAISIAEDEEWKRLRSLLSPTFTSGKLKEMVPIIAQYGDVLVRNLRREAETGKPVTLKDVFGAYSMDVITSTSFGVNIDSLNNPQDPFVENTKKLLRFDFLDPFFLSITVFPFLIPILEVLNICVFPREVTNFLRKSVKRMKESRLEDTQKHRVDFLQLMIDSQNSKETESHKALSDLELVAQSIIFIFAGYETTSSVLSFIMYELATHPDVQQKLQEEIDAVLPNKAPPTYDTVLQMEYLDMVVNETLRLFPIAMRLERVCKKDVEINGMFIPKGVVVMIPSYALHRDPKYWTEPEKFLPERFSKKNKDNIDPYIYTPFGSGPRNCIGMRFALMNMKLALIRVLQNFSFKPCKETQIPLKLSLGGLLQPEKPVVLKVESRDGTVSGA
ENDPOINT_LABEL: IC50 (nM)
One number for each entry, in nM.

If you can, please state the reported IC50 value of COc1ccc(-c2ccc(CO[C@H]3C[C@@H](N=C=S)C3)nc2)cc1F .
2600

----------
# ASSAY_INFO: Half life in mouse liver microsomes at 1 uM in presence of NADPH by LC-MS/MS analysis
# Assay type: ADME, Microsome
Binary call on half-life at 1 µM: Fulfilled from 6 min upward, Not fulfilled beneath that.

Example entries and their recorded answers appear below.
Hi team, for COc1cnc(-c2cnc(CO[C@H]3C[C@@H](N=C=S)C3)c(F)c2)cc1F , is the recorded half-life at 1 µM at or above 6 min?
Fulfilled

Then this compound: Fc1cc(-c2cccc(C(F)(F)F)c2)ccc1CO[C@H]1C[C@@H](N=C=S)C1
Fulfilled

Input Fc1cc(-c2ccc(OC(F)(F)F)c(F)c2)ccc1CO[C@H]1C[C@@H](N=C=S)C1
Not fulfilled

Continuing:
Decide: is the reported value of half-life at 1 µM for COc1ncccc1-c1ccc(CO[C@H]2C[C@@H](N=C=S)C2)c(F)c1 equal to or greater than 6 min?
Fulfilled

Now try COc1cnc(-c2ccc(CO[C@H]3C[C@@H](N=C=S)C3)cn2)cc1F .
Not fulfilled

// repeat for CN(Cc1ccc(-c2ccccc2)cc1)[C@H]1C[C@@H](N=C=S)C1 and report
Not fulfilled

----------
# TESTED_ON: Cathepsin K (Homo sapiens) (UniProt P43235)
# Sequence (whole entry): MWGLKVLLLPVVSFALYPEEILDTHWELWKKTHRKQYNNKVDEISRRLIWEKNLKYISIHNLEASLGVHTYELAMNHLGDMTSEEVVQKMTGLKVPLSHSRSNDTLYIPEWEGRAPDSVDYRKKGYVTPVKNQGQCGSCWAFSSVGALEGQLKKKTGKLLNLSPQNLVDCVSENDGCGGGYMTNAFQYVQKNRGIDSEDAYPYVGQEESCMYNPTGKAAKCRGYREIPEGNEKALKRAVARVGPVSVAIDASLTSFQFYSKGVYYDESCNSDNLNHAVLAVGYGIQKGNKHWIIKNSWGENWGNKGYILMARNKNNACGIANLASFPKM
# ASSAY_INFO: Inhibition of recombinant human Cathepsin K at 100 nM using Z-Phe-Arg-AMC as fluorogenic substrate preincubated for 120 mins followed by substrate addition by fluorescence assay relative to control
Kindly state inhibition for each of the entries shown.
One number for each entry, in %.

Write down the reported inhibition of S=C=N[C@H]1C[C@@H](OCc2ccc(-c3ccc4occc4c3)cn2)C1 , test system: Cathepsin K (Homo sapiens) (UniProt P43235).
55.8

Do the same for COc1cnc(-c2ccc(CO[C@H]3C[C@@H](N=C=S)C3)cn2)cc1F please
56.8

Same for COc1ccc(-c2ccc(CO[C@H]3C[C@@H](N=C=S)C3)c(F)c2)cc1F
56.5

Now consider a different compound.
Provide value of inhibition for this record tested with Cathepsin K (Homo sapiens) (UniProt P43235): COc1cnc(-c2cnc(CO[C@H]3C[C@@H](N=C=S)C3)c(F)c2)cc1F
43.7

----------
# ASSAY_INFO: Drug concentration in brain of CD-1 mouse at 2 mg/kg, iv administered as single cassette dose measured after 15 mins
# Format: ADME, organism-based
# SETUP_CONDITIONS: read-out: Ct
ENDPOINT_LABEL: concentration at 0.25 h (ng/g)
Answers are plain numbers, in ng/g.

Here is how some compounds turned out for concentration at 0.25 h.
Name the reported concentration at 0.25 h value associated with the compound Fc1cc(-c2cccc(C(F)(F)F)c2)ccc1CO[C@H]1C[C@@H](N=C=S)C1
810

Same lookup for Fc1cc(-c2ccc3c(c2)OCO3)ccc1CO[C@H]1C[C@@H](N=C=S)C1 , please.
14

Please give concentration at 0.25 h for each item listed below.
1. COc1ccc(-c2ccc(S(=O)(=O)N[C@H]3C[C@@H](N=C=S)C3)cc2)cc1
2. COc1ccc(-c2ccc(C(=O)N[C@H]3C[C@@H](N=C=S)C3)nc2)cc1
3. COc1ccc(-c2ccc(CO[C@H]3C[C@@H](N=C=S)C3)nc2)cc1F
4. COc1ccc(-c2ccc(C(=O)N[C@H]3C[C@@H](N=C=S)C3)nc2)cc1F
5. Fc1cc(-c2ccc3c(c2)OCCO3)ccc1CO[C@H]1C[C@@H](N=C=S)C1
6. Fc1cc(-c2ccc(OC(F)(F)F)c(F)c2)ccc1CO[C@H]1C[C@@H](N=C=S)C1
7. COc1ccc(-c2ccc(S(=O)(=O)N[C@H]3C[C@@H](N=C=S)C3)nc2)cc1

[1090, 809, 873, 690, 12, 8, 1150]
